For each record, write down the corresponding IC50.
experimental-target: Avi-KRAS G12V (1-169) GppNHp/RAF1 RBD-3xFLAG (52-151) (Homo sapiens, UniProt P01116, G12V)
Construct: Avi-KRAS G12V (1-169)
Sequence (P01116 1-169 isoform P01116-2 G12V): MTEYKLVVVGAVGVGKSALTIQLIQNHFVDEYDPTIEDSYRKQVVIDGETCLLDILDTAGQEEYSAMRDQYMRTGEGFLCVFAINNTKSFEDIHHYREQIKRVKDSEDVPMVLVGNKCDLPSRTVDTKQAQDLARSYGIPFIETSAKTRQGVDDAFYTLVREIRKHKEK
test-description: Raf1-KRAS G12V-GppNHP disruption HTRF assay (Biological Example 1)
Assay type: binding
experimental-setup: KRAS G12V, GppNHp-loaded; Table 11

// query IC50 value for entry CCN(CCO)c1nc(OC[C@@H]2CCCN2C)nc2c(F)c(-c3ccc(F)c4sc(N)c(C#N)c34)c(C(F)(F)F)cc12 [Compound 179]
100 to 1000 nM

// query IC50 value for entry CCN(CCO)c1nc(OCC23CCCN2CCC3)nc2c(F)c(-c3ccc(F)c4sc(N)c(C#N)c34)c(C(F)(F)F)cc12 [Compound 176]
100 to 1000 nM

// query IC50 value for entry N#Cc1c(N)sc2c(F)ccc(-c3c(C(F)(F)F)cc4c(N5CC6CC(C5)O6)nc(OC[C@@]56CCCN5C[C@H](F)C6)nc4c3F)c12 (single isomer, unassigned) [Compound 276]
> 10000 nM

// query IC50 value for entry CO[C@H]1CN2CCC[C@]2(COc2nc(N(C)[C@H]3C[C@@H](O)C3)c3cc(C(F)(F)F)c(-c4ccc(F)c5sc(N)nc45)c(F)c3n2)C1 (atropisomer, axis not shown) [Compound 14]
1000 to 10000 nM

// query IC50 value for entry Nc1nc2c(-c3c(C(F)(F)F)cc4c(N[C@H]5CCC[C@@H](O)C5)nc(OCC56CCCN5CCC6)nc4c3F)ccc(F)c2s1 (atropisomer, axis not shown) [Compound 67]
> 10000 nM

// query IC50 value for entry CC(=O)N1CCN(c2nc(OC[C@@]34CCCN3C[C@H](F)C4)nc3c(F)c(-c4ccc(F)c5sc(N)c(C#N)c45)c(C(F)(F)F)cc23)C[C@H]1C [Compound 229]
1000 to 10000 nM

// query IC50 value for entry C[C@@H]1CN(c2nc(OC[C@@]34CCCN3C[C@H](F)C4)nc3c(F)c(-c4ccc(F)c5sc(N)c(C#N)c45)c(C(F)(F)F)cc23)C[C@@H](C)O1 [Compound 144]
1000 to 10000 nM

// query IC50 value for entry N#Cc1c(N)sc2c(F)ccc(-c3c(C(F)(F)F)cc4c(N5CC(O)C5)nc(OC[C@@]56CCCN5C[C@H](F)C6)nc4c3F)c12 [Compound 215]
100 to 1000 nM

// query IC50 value for entry Nc1nc2c(-c3c(C(F)(F)F)cc4c(NC[C@@H]5CC[C@H](CO)C5)nc(OCC56CCCN5CCC6)nc4c3F)ccc(F)c2s1 [Compound 68]
1000 to 10000 nM

// query IC50 value for entry CN(c1nc(OC[C@@]23CCCN2C[C@H](F)C3)nc2c(F)c(-c3ccc(F)c4sc(N)c(C#N)c34)c(C(F)(F)F)cc12)C1CC(F)C1 (stereo partly shown) [Compound 161]
100 to 1000 nM

// query IC50 value for entry CN1CCN(c2nc(OC[C@@]34CCCN3C[C@H](F)C4)nc3c(F)c(-c4ccc(F)c5sc(N)c(C#N)c45)c(C(F)(F)F)cc23)CCC1=O [Compound 271]
100 to 1000 nM

// query IC50 value for entry C[C@H]1[C@@H](N(C)c2nc(OC[C@@]34CCCN3C[C@H](F)C4)nc3c(F)c(-c4ccc(F)c5sc(N)c(C#N)c45)c(C(F)(F)F)cc23)CCN1C(=O)CC#N [Compound 252]
1000 to 10000 nM

// query IC50 value for entry CN(c1nc(OC[C@@]23CCCN2C[C@H](F)C3)nc2c(F)c(-c3ccc(F)c4sc(N)c(C#N)c34)c(C(F)(F)F)cc12)C1CCC(O)CC1 (stereo partly shown) [Compound 66]
100 to 1000 nM

// query IC50 value for entry N#Cc1c(N)sc2c(F)ccc(-c3c(C(F)(F)F)cc4c(N5CCOC6CC65)nc(OC[C@@]56CCCN5C[C@H](F)C6)nc4c3F)c12 (stereo partly shown) [Compound 148]
100 to 1000 nM

// query IC50 value for entry C[C@H]1COC[C@H](C)N1c1nc(OC[C@@]23CCCN2C[C@H](F)C3)nc2c(F)c(-c3ccc(F)c4sc(N)c(C#N)c34)c(C(F)(F)F)cc12 [Compound 200]
1000 to 10000 nM

// query IC50 value for entry C[C@]1(O)CCN(c2nc(OC[C@@]34CCCN3C[C@H](F)C4)nc3c(F)c(-c4ccc(F)c5sc(N)c(C#N)c45)c(C(F)(F)F)cc23)C1 [Compound 242]
100 to 1000 nM

// query IC50 value for entry CN(c1nc(OC[C@@]23CCCN2C[C@H](F)C3)nc2c(F)c(-c3ccc(F)c4sc(N)c(C#N)c34)c(C(F)(F)F)cc12)[C@H]1C[C@@H](F)C1 (atropisomer, axis not shown) [Compound 160]
1000 to 10000 nM

// query IC50 value for entry CCN(CCCO)c1nc(OC[C@@]23CCCN2C[C@H](F)C3)nc2c(F)c(-c3ccc(F)c4sc(N)c(C#N)c34)c(C(F)(F)F)cc12 [Compound 175]
100 to 1000 nM

// query IC50 value for entry CC(=O)N(C)[C@@H]1CCN(c2nc(OC[C@@]34CCCN3C[C@H](F)C4)nc3c(F)c(-c4ccc(F)c5sc(N)c(C#N)c45)c(C(F)(F)F)cc23)C1 [Compound 207]
100 to 1000 nM

// query IC50 value for entry CCN(c1nc(OC[C@@]23CCCN2C[C@H](F)C3)nc2c(F)c(-c3ccc(F)c4sc(N)c(C#N)c34)c(C(F)(F)F)cc12)C(C)C [Compound 154]
100 to 1000 nM

// query IC50 value for entry C[C@@H]1CN(c2nc(OC[C@@]34CCCN3C[C@H](F)C4)nc3c(F)c(-c4ccc(F)c5sc(N)c(C#N)c45)c(C(F)(F)F)cc23)CCO1 [Compound 141]
1000 to 10000 nM

// query IC50 value for entry N#Cc1c(N)sc2c(F)ccc(-c3c(C(F)(F)F)cc4c(N5C[C@@H](F)[C@@H](F)C5)nc(OC[C@@]56CCCN5C[C@H](F)C6)nc4c3F)c12 [Compound 157]
1000 to 10000 nM
